Measured pIC50 of individual entries
Target: DYRK3 (Homo sapiens, UniProt O43781)
Construct: purchased Carna Biosciences, Inc. 04-133
Sequence (O43781 1-568 isoform O43781-2): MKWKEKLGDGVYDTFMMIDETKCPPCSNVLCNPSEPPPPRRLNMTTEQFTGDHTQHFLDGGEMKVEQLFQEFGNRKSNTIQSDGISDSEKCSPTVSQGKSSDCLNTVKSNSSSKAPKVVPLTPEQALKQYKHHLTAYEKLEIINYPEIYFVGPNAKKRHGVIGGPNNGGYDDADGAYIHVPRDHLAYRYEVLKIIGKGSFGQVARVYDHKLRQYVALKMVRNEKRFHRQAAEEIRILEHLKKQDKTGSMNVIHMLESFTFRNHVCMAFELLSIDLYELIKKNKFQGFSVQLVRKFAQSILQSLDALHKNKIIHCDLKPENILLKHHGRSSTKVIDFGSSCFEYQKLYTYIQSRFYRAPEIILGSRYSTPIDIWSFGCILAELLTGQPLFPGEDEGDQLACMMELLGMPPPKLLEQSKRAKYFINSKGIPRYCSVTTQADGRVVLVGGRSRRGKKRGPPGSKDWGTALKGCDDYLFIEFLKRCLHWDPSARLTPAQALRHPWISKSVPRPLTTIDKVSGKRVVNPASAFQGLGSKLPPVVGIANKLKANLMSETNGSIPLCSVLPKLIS
Test: Inhibition test on activity of DYRK family, mobility shift assay (MSA): DYRK3
Type: biochemical
Settings: MSA, FITC-labeled DYRKtide peptide, ATP 20 μM; read-out: Inhibitory activity DYRK 3 (IC50 class)
Protocol: [Inhibition Test on Activity of DYRK Family (DYRK1A, DYRK1B, DYRK2, and DYRK3)] The kinase activity was measured by mobility shift assay (MSA) method using QuickScout Screening Assist™ MSA (commercially available kit manufactured by Carna Biosciences, Inc.). […] The heights of the peaks of the “substrate” and the “phosphorylated substrate” were expressed as S and P, respectively, and a blank containing the assay buffer instead of the enzyme solution was also measured. […]
pIC50: −log10 of the molar value.
MEASURED ENDPOINT: pIC50

1. C[C@@H]1NC(=O)N(c2nc3c4c(ccc3s2)OCC4)[C@@H]1CN(C)C    ≤ 6.00
2. CN1CCC[C@@H]2[C@H](C1)NC(=O)N2c1nc2c3c(ccc2s1)OCO3    6.00 to 7.00
3. O=C1N[C@@H]2CCN(C3CC3)C[C@@H]2N1c1nc2c3c(ccc2s1)OCCO3 (relative stereo) [Example 31]    ≤ 6.00
4. O=C1N[C@H]2COC[C@H]2N1c1nc2c3c(ccc2s1)OCC3    7.00 to 8.00
